Target: TNKS1 (Homo sapiens, UniProt O95271, M1266I)
Construct: expresses the active PARP domain of TNKS1 as a polyhistidine tagged protein
Sequence (O95271 1112-1317 M1266I): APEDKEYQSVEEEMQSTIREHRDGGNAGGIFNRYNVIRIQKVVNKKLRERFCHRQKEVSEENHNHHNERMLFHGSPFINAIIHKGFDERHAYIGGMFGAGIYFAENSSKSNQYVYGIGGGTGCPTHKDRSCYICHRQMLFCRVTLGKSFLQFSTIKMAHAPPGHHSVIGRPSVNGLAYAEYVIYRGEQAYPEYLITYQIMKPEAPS
Assay: TNKS1/PARP Biochemical Assay
pIC50: −log10 of the molar value.
Measured pIC50 of individual entries

> print(dat)
                                   compound                        measurement.target  assay.metric  endpoint.value
1  CN1CCN(C(=O)Cc2ccc(-c3cc4c(C#N)cc(F)cc4c(=O)[nH]3)cc2)CC1 [IQ-036]  TNKS1 (Homo sapiens, UniProt O95271, M1266I)         pIC50          > 7.30

Let us examine a further case.
Entry COCCN(CCOC)C(=O)c1ccc(-c2cc3c(C#N)cccc3c(=O)[nH]2)cc1 [IQ-008] , tested on TNKS1 (Homo sapiens, UniProt O95271, M1266I), has a reported pIC50 of > 7.00

----------
System: SW620 cells
Assay: Tumour Cell Inhibition Assay (SW620 cells)
Type: cell-based
Conditions: Homo sapiens, SW-620, 120 h, five day exposure, read-out: cell inhibitory SF50 (SW620)
assay.metric: IC50 (nM)
Give your result in nM as a bare value.

Reported IC50 for `CN(C)C1CCN(Cc2ccc(-c3cc4c(C#N)cccc4c(=O)[nH]3)cc2)CC1` was 3000

----------
Target: TNKS1 (Homo sapiens, UniProt O95271, M1266I)
Construct: expresses the active PARP domain of TNKS1 as a polyhistidine tagged protein
Test: TNKS1/PARP Biochemical Assay
Protocol: TNKS1/PARP Biochemical Assay Tankyrase activity was assayed using a 96-well format HT Universal Chemiluminescent PARP Assay Kit (Trevigen, Inc, cat. no. 4676-096-K) according to the manufacturer's instructions. In short, tankyrase/PARP activity is quantified by the incorporation of biotinylated nicotinamide adenine dinucleotide (biotin-NAD^+) onto the immobilised pseudo substrate, Histone. […]
pIC50: −log10 of the molar value.
Below is a list of entries, each paired with its recorded pIC50 value.

> print(dat)
                                   compound  endpoint.value
1  N#Cc1cccc2c(=O)[nH]c(-c3ccc(N4CCNCC4)cc3)cc12          > 7.30
2  CN1CCCN(Cc2ccc(-c3cc4c(C#N)cccc4c(=O)[nH]3)cc2)CC1          > 7.30
3  N#Cc1cccc2c(=O)[nH]c(-c3ccc(Cn4ccnc4CO)cc3)cc12          > 7.30
4  Cc1nnc(N(C)Cc2ccc(-c3cc4c(C#N)cccc4c(=O)[nH]3)cc2)o1          > 7.30
5  Cc1nnc(N2CCN(Cc3ccc(-c4cc5c(C#N)cc(F)cc5c(=O)[nH]4)cc3)CC2)o1          > 7.30

Record summary for CC(c1ccc(-c2cc3c(C#N)cccc3c(=O)[nH]2)cn1)n1ccnc1 (centres unmarked) : reported pIC50 = > 7.30

So, `N#Cc1cccc2c(=O)[nH]c(-c3ccc(Cn4ccnc4N)cc3)cc12` ? Its pIC50 was > 7.30

Short answer for `N#Cc1cccc2c(=O)[nH]c(-c3ccc(CN4CC5CCC(C4)N5)cc3)cc12` : pIC50 was > 7.00

Briefly, pIC50 measured for `COCc1ccnn1Cc1ccc(-c2cc3c(C#N)cccc3c(=O)[nH]2)cc1` : > 7.00

Notebook: `COCc1nccn1Cc1ccc(-c2cc3c(C#N)cccc3c(=O)[nH]2)cc1` , pIC50 read as > 7.30

Record CN(C)C1CCN(Cc2ccc(-c3cc4c(C#N)cccc4c(=O)[nH]3)cc2)C1 (centres unmarked) . Reported pIC50: > 7.00

The compound listed as `CC(C)c1nnc(N2CCN(Cc3ccc(-c4cc5c(C#N)cccc5c(=O)[nH]4)cc3)CC2)o1` has a reported pIC50 of > 7.30

Record `CCc1nnc(N2CCN(Cc3ccc(-c4cc5c(C#N)cccc5c(=O)[nH]4)cc3)CC2)o1` , field pIC50: > 7.30

Value of measured pIC50 for the entry `Cc1nnc(N2CCN(c3ccc(-c4cc5c(C#N)cccc5c(=O)[nH]4)cc3)CC2)o1` : > 7.30

Quick note, pIC50 for `COCCN1CCN(C(=O)c2ccc(-c3cc4c(C#N)cccc4c(=O)[nH]3)cc2)CC1` landed at > 7.30

pIC50 reported for this compound `N#Cc1cccc2c(=O)[nH]c(-c3ccc(C(=O)N(CCO)CCO)cc3)cc12` : > 7.30

Kindly note the recorded pIC50 for Cc1nnc(N2CCN(C(C)c3ccc(-c4cc5c(C#N)cccc5c(=O)[nH]4)cc3)CC2)o1 (centres unmarked) , which is > 7.30

----------
Test system: DLD1 cells
Experiment: Long-Term Clonogenic Assay (DLD1 cells)
Format: cell-based
Conditions: Homo sapiens, DLD-1, 12-14 days, read-out: cell inhibitory SF50 (DLD1)
assay.metric: IC50 (nM)
Please give a number only; it is taken to be in nM.

# IC50 (molecule: `CN1CCN(Cc2ccc(-c3cc4c(C#N)cccc4c(=O)[nH]3)cc2)CC1` ) is 2300

----------
Target: TNKS1 (Homo sapiens, UniProt O95271, M1266I)
Construct: expresses the active PARP domain of TNKS1 as a polyhistidine tagged protein
Assay: TNKS1/PARP Biochemical Assay
IC50 listing for selected compounds.

> print(dat)
                                   compound  assay.metric  endpoint.value
1  Cc1nnc(N2CCCN(c3ccc(-c4cc5c(C#N)cccc5c(=O)[nH]4)cc3)CC2)o1 [IQ-059]          IC50         < 50 nM
2  N#Cc1cccc2c(=O)[nH]c(-c3ccc(Cn4ccnn4)cc3)cc12 [IQ-030]          IC50         < 50 nM
3  Cc1nnc(C2CCN(Cc3ccc(-c4cc5c(C#N)cccc5c(=O)[nH]4)cc3)CC2)o1 [IQ-041]          IC50         < 50 nM
4  Cc1nnc(NCc2ccc(-c3cc4c(C#N)cccc4c(=O)[nH]3)cc2)o1 [IQ-045]          IC50         < 50 nM
5  N#Cc1cccc2c(=O)[nH]c(-c3ccc(N4CCNCC4)nc3)cc12 [IQ-052]          IC50        < 100 nM

COCc1ccn(Cc2ccc(-c3cc4c(C#N)cccc4c(=O)[nH]3)cc2)n1 [IQ-033] yielded IC50 of < 50 nM

Measured IC50, COCc1nccn1C(C)c1ccc(-c2cc3c(C#N)cccc3c(=O)[nH]2)cc1 (stereo not shown) [IQ-028] : < 50 nM

Kindly note the recorded IC50 for N#Cc1cccc2c(=O)[nH]c(-c3ccc(Cn4nccn4)cc3)cc12 [IQ-027] , which is < 100 nM

Record CC(c1ccc(-c2cc3c(C#N)cccc3c(=O)[nH]2)cc1)n1ccnc1CO (stereo not shown) [IQ-038] . Reported IC50: < 50 nM

For reference, reported IC50 for Cc1nnc(N2CCN(Cc3ccc(-c4cc5c(C#N)cccc5c(=O)[nH]4)cc3)C(C)C2)o1 (stereo not shown) [IQ-040] stands at < 100 nM

Measured IC50, Cc1nnc(N2CCN(Cc3ccc(-c4cc5c(C#N)cccc5c(=O)[nH]4)cc3)C(C)(C)C2)o1 [IQ-057] : < 50 nM

Query Cc1nnc(N2CCCN(Cc3ccc(-c4cc5c(C#N)cccc5c(=O)[nH]4)cc3)CC2)o1 [IQ-049] yields IC50 of < 50 nM

compound CN1CCN(C(=O)Cc2ccc(-c3cc4c(C#N)cccc4c(=O)[nH]3)cc2)CC1 [IQ-037] , IC50 observed: < 50 nM

The recorded IC50 for entry COCc1nccn1Cc1ccc(-c2cc3c(CN)cccc3c(=O)[nH]2)cc1 [IQ-023] equals < 50 nM

The value of IC50 measured for the compound CC(c1ccc(-c2cc3c(C#N)cccc3c(=O)[nH]2)cc1)N1CC(O)C1 (stereo not shown) [IQ-009] turned out to be < 50 nM

Lookup result for CN(C)Cc1nccn1Cc1ccc(-c2cc3c(C#N)cccc3c(=O)[nH]2)cc1 [IQ-016] ; measured IC50: < 50 nM

----------
Target: TNKS1 (Homo sapiens, UniProt O95271, M1266I)
Construct: expresses the active PARP domain of TNKS1 as a polyhistidine tagged protein
Experiment: TNKS1/PARP Biochemical Assay
Experimental: TNKS1/PARP Biochemical Assay Tankyrase activity was assayed using a 96-well format HT Universal Chemiluminescent PARP Assay Kit (Trevigen, Inc, cat. no. 4676-096-K) according to the manufacturer's instructions. In short, tankyrase/PARP activity is quantified by the incorporation of biotinylated nicotinamide adenine dinucleotide (biotin-NAD^+) onto the immobilised pseudo substrate, Histone. […]
assay.metric: IC50

Worked examples, 3 molecules total:
> print(dat)
                                   molecule                        measurement.target  endpoint.value
1  CN(C)C1CCN(Cc2ccc(-c3cc4c(C#N)cccc4c(=O)[nH]3)cc2)CC1  TNKS1 (Homo sapiens, UniProt O95271, M1266I)         < 50 nM
2  CN1CCN(Cc2ccc(-c3cc4c(C#N)cc(F)cc4c(=O)[nH]3)cc2)CC1  TNKS1 (Homo sapiens, UniProt O95271, M1266I)        < 100 nM
3   N#Cc1cccc2c(=O)[nH]c(-c3ccc(CN)cc3)cc12  TNKS1 (Homo sapiens, UniProt O95271, M1266I)        < 100 nM

response.value for `Cc1nnc(N(C)C2CN(Cc3ccc(-c4cc5c(C#N)cccc5c(=O)[nH]4)cc3)C2)o1` (field: IC50) = < 50 nM

So for `CN(C(=O)c1ccc(-c2cc3c(C#N)cccc3c(=O)[nH]2)cc1)C1CCN(CC2CC2)CC1` , the logged IC50 turned out to be < 50 nM

IC50 for Cc1nnc(N2CCN(Cc3ccc(-c4cc5c(C#N)cccc5c(=O)[nH]4)cc3)CC2C)o1 (stereo not drawn) is < 50 nM
